Hey, just so you know, these numbers are from PubChem BioAssay.

- Assay comment: reversal of MRP1-mediated doxorubicin resistance, pilot screen, H69AR cells, doxorubicin co-treatment (AID 601)
- Condition context: H69AR cells + 2 uM doxorubicin, CellTiter-Glo, 72 h; at 10 µM; active compounds read high
Assay metric: differential viability (reversal) (%)
The answer is to be given in %; state only the numeric part.

Compound	Display unit	differential viability (reversal)
CCOc1ccccc1C(=O)Nn1c(C2CCC2)nc2ccccc2c1=O	%	-18
CCOc1ccc(C(=O)Cc2ccc3oc(C(=O)O)cc3c2)c(O)c1	%	10.4
CN1/C(=C\C(=O)Nc2cccnc2)c2ccccc2CC1(C)C	%	-4.08

Record CCOC(=O)CCNC(=O)Nc1ccc2nc(C)n(Cc3ccccc3Cl)c(=O)c2c1 . Reported differential viability (reversal): 7.92

What the record says about CCc1cc2c(=O)c(-c3nc4ccccc4[nH]3)coc2cc1OC(=O)N1CCOCC1 : differential viability (reversal) is -13.9

Value of differential viability (reversal) reported for the compound CC(=O)c1c(C)[nH]c(C(=O)NCc2cccs2)c1C is 11.2
